Data provenance is patent US12023319B2.

# reported IC50; entries follow
Tested Target: human Bradykinin B1 receptor (Homo sapiens, UniProt P46663)
Sequence (P46663 whole entry): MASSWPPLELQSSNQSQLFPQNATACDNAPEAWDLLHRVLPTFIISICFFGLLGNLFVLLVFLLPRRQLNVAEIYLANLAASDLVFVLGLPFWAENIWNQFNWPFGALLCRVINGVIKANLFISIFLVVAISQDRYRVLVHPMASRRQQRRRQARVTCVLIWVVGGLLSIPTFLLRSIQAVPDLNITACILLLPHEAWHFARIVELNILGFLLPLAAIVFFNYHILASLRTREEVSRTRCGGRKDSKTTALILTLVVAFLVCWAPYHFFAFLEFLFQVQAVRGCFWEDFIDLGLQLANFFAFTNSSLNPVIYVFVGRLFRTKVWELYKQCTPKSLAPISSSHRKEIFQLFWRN
Assay Text: Calcium flux assay (FLIPR), CHO-K1 cells expressing human Bradykinin B1 receptor, absence of 0.1% BSA (hB1 free IC50)
Run Parameters: absence of 0.1% BSA in assay buffer
Kindly provide the numeric value in nM only, without the unit symbol.

Use these answered entries as a reference point.
Cn1ncc2ccc(-c3ccc(NC(=O)C4(c5ccc(OC(F)(F)F)cc5F)CC4)cc3C(=O)O)cc21	120
O=C(O)c1cc(NC(=O)C2(c3ccc(Cl)cn3)CC2)ccc1-c1cnn(C2CCC2)c1	360
O=C(O)c1cc(NC(=O)C2(c3ccc(C(F)(F)F)cc3F)CC2)ccc1-c1cc2ccccc2s1	6.5
O=C(O)c1cc(NC(=O)C2(c3ccc(F)cc3Cl)CC2)ccc1-c1cnn(C2CCC2)c1	200

Consider the compound "O=C(O)c1cc(NC(=O)C2(c3ccc(C(F)(F)F)cc3F)CC2)ccc1-c1cc2cccnc2s1" and give its recorded IC50.
58

For "CCn1cc(-c2c(F)cc(NC(=O)C3(c4ccc(OC(F)(F)F)cc4F)CC3)cc2C(=O)O)cn1" , write its IC50.
13

// fetch IC50 given entry "O=C(O)c1cc(NC(=O)C2(c3ccc(Cl)cc3F)CC2)ccc1-c1cnc(C2CCC2)s1"
3.7

Identify measured IC50 associated with "Cc1ccc(-c2ccc(NC(=O)C3(c4ccc(C(F)(F)F)cc4F)CC3)cc2C(=O)O)cn1"
67

Find the measured IC50 of "CC1(Cn2cc(-c3ccc(NC(=O)C4(c5ccc(C(F)(F)F)cc5F)CC4)cc3C(=O)O)cn2)CC1" and report it.
22

For "CC(C)(C)n1cc(-c2ccc(NC(=O)C3(c4ccc(C(F)(F)F)cc4F)CC3)cc2C(=O)O)cn1" , write its IC50.
28

Fill in IC50 for record "O=C(O)c1cc(NC(=O)C2(c3ccc(C(F)(F)F)cc3F)CC2)ccc1-n1ccc(CC(F)(F)F)n1"
3600

Give the measured IC50 for "CCCn1cc(-c2ccc(NC(=O)C3(c4ccc(OC(F)(F)F)cc4F)CC3)cc2C(=O)O)cn1"
120

Give reported IC50 value for "Cn1ncc2ccc(-c3c(F)cc(NC(=O)C4(c5ccc(OC(F)(F)F)cc5F)CC4)cc3C(=O)O)cc21"
24

Provide only the value of recorded IC50 for "CC(C)(C)c1cn(-c2c(F)cc(NC(=O)C3(c4ccc(C(F)(F)F)cc4F)CC3)cc2C(=O)O)cn1"
24

State, in one line, measured IC50 of "O=C(O)c1cc(NC(=O)C2(c3ccc(C(F)(F)F)cc3F)CC2)cc(F)c1-c1cnn(C2CCC2)c1"
6.3
